tested on: Streptococcus pyogenes SSI-9; assay: Antibacterial activity assay of bead-derived peptides (three concentrations); format: cell-based; parameters: key: +++: inhibition by the 640-fold diluted peptide solution; ++: inhibition by the 160-fold diluted solution; +: inhibition by the 40-fold diluted solution; -: no inhibition; settings: S. pyogenes, bead-derived peptide solution, three concentrations
Where a SMILES comes first, the peptide text is derived from it. [ ]: non-standard residue; d: D form. The star is where a group is joined. NHCH2CH2OH = OCCN*; For = O=C*
measurement-name: antibacterial activity

CC(C)C[C@@H](NC(=O)[C@H](C)NC(=O)CNC(=O)[C@@H](NC=O)C(C)C)C(=O)N[C@@H](C)C(=O)N[C@H](CC(C)C)C(=O)N[C@H](C(=O)N[C@@H](C(=O)N[C@@H](Cc1c[nH]c2ccccc12)C(=O)N[C@H](CC(C)C)C(=O)N[C@@H](Cc1c[nH]c2ccccc12)C(=O)N[C@@H](C(=O)N[C@@H](Cc1c[nH]c2ccccc12)C(=O)N[C@@H](C(=O)N[C@@H](Cc1c[nH]c2ccccc12)C(=O)NCCO)C(C)C)[C@H](C)O)C(C)C)C(C)C [compound 13273] (For-VGA[dL]A[dL]V[dV]W[dL]W[dT]W[dV]W-NHCH2CH2OH) = -
CC(C)C[C@@H](NC(=O)[C@H](C)NC(=O)[C@H](NC(=O)[C@H](C)NC(=O)CNC(=O)[C@@H](NC=O)C(C)C)C(C)C)C(=O)N[C@H](C(=O)N[C@@H](C(=O)N[C@@H](Cc1c[nH]c2ccccc12)C(=O)N[C@H](CC(C)C)C(=O)N[C@@H](Cc1c[nH]c2ccccc12)C(=O)N[C@H](CC(C)C)C(=O)N[C@@H](Cc1c[nH]c2ccccc12)C(=O)N[C@H](CC(C)C)C(=O)N[C@@H](Cc1c[nH]c2ccccc12)C(=O)NCCO)C(C)C)C(C)C [compound 9897] (For-VGA[dV]A[dL]V[dV]W[dL]W[dL]W[dL]W-NHCH2CH2OH) = +
